Molecular target: scSUMO-MBP fusion protein
assay.endpoint: cleavage of the SUMO fusion protein

SUMOstar protease (protein) LVPELNEKDDDQVQKALASRENTQLMNRDNIEITVRDFKTLAPRRWLNSGIISFFMKYIEKSTPNTVAFNSFFYTNLSERGYQGVRRWMKRKKTQIDKLDKIFTPINLNQSHWALGIIDLKKKTIGYVDSLSNGPNAMSFAILTDLQKYVMEESKHTIGEDFDLIHLDCPQQPNGYDCGIYVCMNTLYGSADAPLDFDYKDAIRMRRFIAHLILTDALK; 100 % cleavage
bdSENP1^MutG (protein) PFVPLTDEDEDNVRHALGGRKSSETLSVHEASHIVITREILQCLNDKEWLNDEVINLYLELLKERELREPNKFLKCHFFNTFFYKKLINGGYDYKSVRRWTTVKLGYNLIDCDKIFVPIHKDVHWCLAVINIKEKKFQYLDSLGYMDMKALRILAKYLVDEVKDKSGKQIDVHAWKQEGVQNLPLQENGWDCGMFMLKYIDFYSRDMELVFGQKHMSYFRRRTAKEILDLKAG; < 25 % cleavage
bdSENP1^MutJ (protein) PFVPLTDEDEDNVRHALGGRKESETLSVHEASSIVITREILQCLNDKEWLNDEVINLYLELLKERELREPNKFLKCHFFNTFFYKKLINGGYDYKSVRSWTTTRKLGYNLIDCDKIFVPIHKDVHWCLAVINIKEKKFQYLDSLGYMDMKALRILAKYLVDEVKDKSGKQIDVHAWKQEGVQNLPLQENGWDCGMFMLKYIDFYSRDMELVFGQKHMSYFRRRTAKEILDLKAG; < 25 % cleavage
bdSENP1^Muti (protein) PFVPLTDEDEDNVRHALGGRKKSETLSVHEASHIVITREILQCLNDKEWLNDEVINLYLELLKERELREPNKFLKCHFFNTFFYKKLINGGYDYKSVREWTTRRKLGYNLIDCDKIFVPIHKDVHWCLAVINIKEKKFQYLDSLGYMDMKALRILAKYLVDEVKDKSGKQIDVHAWKQEGVQNLPLQENGWDCGMFMLKYIDFYSRDMELVFGQKHMSYFRRRTAKEILDLKAG; resistant
bdSENP1^MutH (protein) PFVPLTDEDEDNVRHALGGRKPSETLSVHEASAIVITREILQCLNDKEWLNDEVINLYLELLKERELREPNKFLKCHFFNTFFYKKLINGYDYKSVREWTTMRKLGYNLIDCDKIFVPIHKDVHWCLAVINIKEKKFQYLDSLGYMDMKALRILAKYLVDEVKDKSGKQIDVHAWKQEGVQNLPLQENGWDCGMFMLKYIDFYSRDMELVFGQKHMSYFRRRTAKEILDLKAG; resistant

Just for reference, patent US20210261937 is where these values come from.
